# System: MT-4 cells
# assay.info: Cell toxicity in uninfected MT-4 cells (MTT method)
# Format: cell-based
# measurement.conditions: Table 1
// reported CC50 per item
For clarity, give the value followed by its unit.

Inquiry: Which CC50 reading was recorded for the molecule CCc1c(NC)nc(Nc2ccc(C#N)cc2)nc1Oc1ccc2cc(C#N)ccc2c1Br ?
Reply text: 304 µM

Inquiry: Which CC50 reading was recorded for the molecule Cc1cc2ccccc2cc1Oc1ccnc(Nc2ccc(C#N)cc2)n1 ?
Reply text: 71.2 µM

Inquiry: Which CC50 reading was recorded for the molecule CC(C)c1c(Cl)nc(Nc2ccc(C#N)cc2)nc1Oc1ccc2cc(C#N)ccc2c1 ?
Reply text: 436 µM

Inquiry: Which CC50 reading was recorded for the molecule Cc1c(Oc2ccnc(Nc3ccc(C#N)cc3)n2)ccc2ccccc12 ?
Reply text: 114 µM

Inquiry: Which CC50 reading was recorded for the molecule Cc1cc2ccccc2c(C)c1Oc1ccnc(Nc2ccc(C#N)cc2)n1 ?
Reply text: 313 µM

Inquiry: Which CC50 reading was recorded for the molecule Cc1c(Cl)nc(Nc2ccc(C#N)cc2)nc1Oc1cccc2cccnc12 ?
Reply text: 44.7 µM

Inquiry: Which CC50 reading was recorded for the molecule N#Cc1ccc(Nc2nccc(Oc3ccc4cc(C#N)ccc4c3Br)n2)cc1 ?
Reply text: 290 µM

Inquiry: Which CC50 reading was recorded for the molecule CNc1nc(Nc2ccc(C#N)cc2)nc(Oc2ccc3cc(C#N)ccc3c2)c1C(C)C ?
Reply text: 265 µM

Inquiry: Which CC50 reading was recorded for the molecule N#Cc1ccc(Nc2nccc(Oc3cc4ccc(C#N)cc4cc3Br)n2)cc1 ?
Reply text: 55.4 µM

Inquiry: Which CC50 reading was recorded for the molecule N#Cc1ccc(Nc2nccc(Oc3ccc4cc(Br)ccc4c3Br)n2)cc1 ?
Reply text: 51.1 µM

----------
# Tested on: HIV-1 IIIB strain
# assay.info: Anti-HIV activity: protection of HIV-infected MT-4 cells from virus-induced cell lesions
# Type: cell-based
# measurement.conditions: MT-4 cells, Table 1; read-out: EC50 HIV-1(IIIB)
// reported pEC50 per item
pEC50 here is simply -log10 of the concentration when that concentration is written in mol/L.

| structure.as.smiles | tested.target | reported.result |
| --- | --- | --- |
| Cc1c(Oc2ccnc(Nc3ccc(C#N)cc3)n2)ccc2ccccc12 | HIV-1 IIIB strain | 8.46 |
| CC(C)c1c(Cl)nc(Nc2ccc(C#N)cc2)nc1Oc1ccc2cc(C#N)ccc2c1 | HIV-1 IIIB strain | 7.30 |
| Cc1cc2ccccc2cc1Oc1ccnc(Nc2ccc(C#N)cc2)n1 | HIV-1 IIIB strain | 8.64 |

Inquiry: Which pEC50 reading was recorded for the compound N#Cc1ccc(Nc2nccc(Oc3ccc4cc(C#N)ccc4c3)n2)cc1 ?
Reply text: 8.48

Inquiry: Which pEC50 reading was recorded for the compound COc1nc(Nc2ccc(C#N)cc2)nc(Oc2cccc3cccnc23)c1C ?
Reply text: 7.75

Inquiry: Which pEC50 reading was recorded for the compound Cc1cnc(Nc2ccc(C#N)cc2)nc1Oc1cccc2cccnc12 ?
Reply text: 8.24

Inquiry: Which pEC50 reading was recorded for the compound CCc1c(NC)nc(Nc2ccc(C#N)cc2)nc1Oc1ccc2cc(C#N)ccc2c1Br ?
Reply text: 8.21

Inquiry: Which pEC50 reading was recorded for the compound Cc1cc2ccccc2c(C)c1Oc1ccnc(Nc2ccc(C#N)cc2)n1 ?
Reply text: 8.39

Inquiry: Which pEC50 reading was recorded for the compound N#Cc1ccc(Nc2nccc(Oc3cc4ccc(C#N)cc4cc3Br)n2)cc1 ?
Reply text: 8.96

----------
// reported CC50 at 7 days per item
# assay.info: Cell toxicity in uninfected MT-4 cells (MTT method)
# Type: cell-based
# measurement.conditions: human, uninfected MT-4 cells, Table 3

Example compounds with recorded CC50 at 7 days:
| compound | CC50 at 7 days |
| --- | --- |
| Cc1cc(Br)cc(Br)c1Oc1nc(Nc2ccc(C#N)cc2)nc2ccccc12 [Compound 32] | 157 µM |
| N#Cc1ccc(Nc2nc(Oc3ccc(Br)cc3)c3ccccc3n2)cc1 [Compound 26] | 235 µM |
| COc1ccccc1Oc1nc(Nc2ccc(C#N)cc2)nc2ccccc12 [Compound 29] | > 186 µM |

Inquiry: Which CC50 at 7 days reading was recorded for the compound Cc1ccccc1Oc1nc(Nc2ccc(C#N)cc2)nc2ccccc12 [Compound 25] ?
Reply text: 108 µM

Inquiry: Which CC50 at 7 days reading was recorded for the compound Cc1cccc(Oc2nc(Nc3ccc(C#N)cc3)nc3ccccc23)c1 [Compound 27] ?
Reply text: > 352 µM

Inquiry: Which CC50 at 7 days reading was recorded for the compound Cc1ccc(Oc2nc(Nc3ccc(C#N)cc3)nc3ccccc23)cc1 [Compound 31] ?
Reply text: 340 µM

Inquiry: Which CC50 at 7 days reading was recorded for the compound COc1ccc(Oc2nc(Nc3ccc(C#N)cc3)nc3ccccc23)cc1 [Compound 28] ?
Reply text: > 3400 µM

Inquiry: Which CC50 at 7 days reading was recorded for the compound N#Cc1ccc(Nc2nc(Oc3ccccc3)c3ccccc3n2)cc1 [Compound 30] ?
Reply text: > 365 µM

----------
Parameter IC50, tested on HIV-1 RT (Human immunodeficiency virus type 1 group M subtype B), listed per item.
I only need the number, in µM, no unit after it.

Example compounds with recorded IC50:
| structure.as.smiles | IC50 (µM) |
| --- | --- |
| COc1cc2cc(C#N)ccc2c(OC)c1Oc1ccnc(Nc2ccc(C#N)cc2)n1 | 0.0945 |
| COc1c(Oc2ccnc(Nc3ccc(C#N)cc3)n2)ccc2cc(C#N)ccc12 | 2.29 |

Shifting focus to the compound that follows.
Inquiry: Which IC50 reading was recorded for the compound COc1cc2cc(C#N)ccc2cc1Oc1ccnc(Nc2ccc(C#N)cc2)n1 ?
Reply text: 1.32

----------
// reported EC50 per item
# Test system: HIV-1 IIIB strain
# assay.info: Anti-HIV activity: protection of HIV-infected MT-4 cells from virus-induced cell lesions
# Format: cell-based
# measurement.conditions: MT-4 cells, Table 3; read-out: EC50 HIV-1(IIIB)
I only need the number, in nM, no unit after it.

| molecule | tested.target | reported.result |
| --- | --- | --- |
| N#Cc1ccc(Nc2nc(Sc3ccccc3)c3ccccc3n2)cc1 [Compound 44] | HIV-1 IIIB strain | 752 |
| Cc1cc(Br)c(Oc2nc(Nc3ccc(C#N)cc3)nc3ccccc23)c(Br)c1 [Compound 35] | HIV-1 IIIB strain | 15 |
| CCOc1cc(C#N)cc(Cl)c1Oc1nc(Nc2ccc(C#N)cc2)nc2ccccc12 [Compound 49] | HIV-1 IIIB strain | 5.9 |

Shifting focus to the molecule that follows.
Inquiry: Which EC50 reading was recorded for the molecule N#Cc1ccc(Nc2nc(Oc3c(Cl)cc(Cl)cc3Cl)c3ccccc3n2)cc1 [Compound 42] ?
Reply text: 3.5

----------
# System: MT-4 cells
# assay.info: Cell toxicity in uninfected MT-4 cells (MTT method)
# Type: cell-based
# measurement.conditions: Table 3
property.label: CC50

| structure.as.smiles | CC50 |
| --- | --- |
| CCOc1cc(C#N)cc(OC)c1Oc1nc(Nc2ccc(C#N)cc2)nc2ccccc12 | > 130 µM |

Inquiry: Which CC50 reading was recorded for the compound COc1cc(C#N)cc(OC(C)C)c1Oc1nc(Nc2ccc(C#N)cc2)nc2ccccc12 ?
Reply text: > 65.8 µM

Inquiry: Which CC50 reading was recorded for the compound COc1cc(C#N)cc(OC)c1Oc1nc(Nc2ccc(C#N)cc2)nc2ccccc12 ?
Reply text: > 93.1 µM

Inquiry: Which CC50 reading was recorded for the compound N#Cc1ccc(Nc2nc(S(=O)(=O)c3ccccc3)c3ccccc3n2)cc1 ?
Reply text: > 215 µM

----------
// reported CC50 per item
# System: MT-4 cells
# assay.info: Cell toxicity in uninfected MT-4 cells (MTT method)
# Format: cell-based
# measurement.conditions: Table 3
# Protocol: Anti-virus activity of cells in vitro was determined by Rega Institute for Medical of […] Katholleke University, consisting mainly: inhibitory activity towards HIV-infected MT-4 cells and cell toxicity. […]

Inquiry: Which CC50 reading was recorded for the compound Cc1cccc(C)c1Oc1nc(Nc2ccc(C#N)cc2)nc2ccccc12 ?
Reply text: > 640 µM

Inquiry: Which CC50 reading was recorded for the compound Cc1cc(Br)c(Oc2nc(Nc3ccc(C#N)cc3)nc3ccccc23)c(Br)c1 ?
Reply text: 23.4 µM

Inquiry: Which CC50 reading was recorded for the compound CCCOc1cc(C#N)cc(OCC)c1Oc1nc(Nc2ccc(C#N)cc2)nc2ccccc12 ?
Reply text: > 66.7 µM

----------
# Tested on: HIV-1 IIIB strain
# assay.info: Anti-HIV activity: protection of HIV-infected MT-4 cells from virus-induced cell lesions
# Assay type: cell-based
# measurement.conditions: MT-4 cells, Table 3; read-out: EC50 HIV-1(IIIB)
property.label: log10 of EC50 (log10 of the value in nM)
Scale: log10; quantity: EC50; unit before log: nM

Example compounds with recorded log10 of EC50:
| structure.as.smiles | reported.result |
| --- | --- |
| COc1cc(C#N)cc(OC)c1Oc1nc(Nc2ccc(C#N)cc2)nc2ccccc12 | 0.34 |
| COc1cc(C#N)cc(OC(C)C)c1Oc1nc(Nc2ccc(C#N)cc2)nc2ccccc12 | 0.83 |
| N#Cc1ccc(Nc2nc(S(=O)(=O)c3ccccc3)c3ccccc3n2)cc1 | 2.77 |

Inquiry: Which log10 of EC50 reading was recorded for the compound Cc1cccc(C)c1Oc1nc(Nc2ccc(C#N)cc2)nc2ccccc12 ?
Reply text: 1.66

Inquiry: Which log10 of EC50 reading was recorded for the compound N#Cc1ccc(Nc2nc(Oc3ccc(F)cc3)c3ccccc3n2)cc1 ?
Reply text: 2.19

Source of measurements: patent US8809343B2
